# assay_system: Muscarinic acetylcholine receptor M2 (Homo sapiens, UniProt P08172)
# Sequence (P08172 whole entry): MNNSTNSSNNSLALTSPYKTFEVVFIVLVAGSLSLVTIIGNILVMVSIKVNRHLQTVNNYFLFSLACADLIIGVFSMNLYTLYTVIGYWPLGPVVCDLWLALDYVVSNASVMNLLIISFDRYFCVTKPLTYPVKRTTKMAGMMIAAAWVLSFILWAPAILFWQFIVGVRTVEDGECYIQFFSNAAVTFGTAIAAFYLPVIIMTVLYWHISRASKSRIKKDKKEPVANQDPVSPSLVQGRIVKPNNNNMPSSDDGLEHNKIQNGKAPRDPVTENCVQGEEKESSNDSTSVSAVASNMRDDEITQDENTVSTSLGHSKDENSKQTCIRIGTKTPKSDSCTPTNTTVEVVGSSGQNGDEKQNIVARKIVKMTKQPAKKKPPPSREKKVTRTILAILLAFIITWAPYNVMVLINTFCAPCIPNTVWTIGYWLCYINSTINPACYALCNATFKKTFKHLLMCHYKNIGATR
# test_method_notes: Displacement of [3H]-NMS from human muscarinic M2 receptor expressed in CHO-K9 cells after 3 hrs by microbeta2 scintillation counting method
# Type: cell-based
molecules and their reported Ki
Report the figure along with its unit, number first.

Provide measured Ki value, entry: CC(=O)N[C@@H](CCCCN)C(=O)N[C@@H](CCCNC(=N)N)C(=O)NCCCCC1CCN(CC(=O)N2c3ccccc3NC(=O)c3ccccc32)CC1
1.07 nM

Return Ki for the following molecule: CC(=O)N[C@@H](Cc1ccc(O)cc1)C(=O)N[C@@H](C)C(=O)N[C@@H](CCCCN)C(=O)NCCCCC1CCN(CC(=O)N2c3ccccc3NC(=O)c3ccccc32)CC1
9.33 nM

Determine its reported Ki: CC(=O)N[C@@H](CCCNC(=N)N)C(=O)NCCCCC1CCN(CC(=O)N2c3ccccc3NC(=O)c3ccccc32)CC1
11.2 nM

* * *

# assay_system: Muscarinic acetylcholine receptor M2 (Homo sapiens, UniProt P08172)
# test_method_notes: Displacement of [3H]-NMS from human muscarinic M2 receptor expressed in CHO-K9 cells after 3 hrs by microbeta2 scintillation counting method
# Format: cell-based
API: label(entry) gives YES if the entry's Ki is strictly smaller than 2 nM; on equality or larger values it gives NO.

Example entries begin here.
> print(dat)
                                test.smiles  label.class
1  CC(=O)N[C@@H](Cc1ccc(O)cc1)C(=O)N[C@@H](CCCCN)C(=O)NCCN1CCN(CCCCC2CCN(CC(=O)N3c4ccccc4NC(=O)c4ccccc43)CC2)CC1          YES
2  CC(=O)N[C@@H](Cc1ccc(O)cc1)C(=O)N[C@@H](CCCCN)C(=O)NCCCCC1CCN(CC(=O)N2c3ccccc3NC(=O)c3ccccc32)CC1           NO

Could you please tell me whether Ki recorded for CC(=O)N[C@@H](Cc1c[nH]c2ccccc12)C(=O)N[C@@H](Cc1ccc(O)cc1)C(=O)NCCCCC1CCN(CC(=O)N2c3ccccc3NC(=O)c3ccccc32)CC1 is less than 2 nM?
NO

Does this compound meet the criterion Ki < 2 nM? CN1CC=C(c2nsnc2OCCCN2CCN(CCCCC3CCN(CC(=O)N4c5ccccc5NC(=O)c5ccccc54)CC3)CC2)CC1
YES

Strictly below 2 nM: is that where Ki of CC(=O)N[C@@H](CCCNC(=N)N)C(=O)N[C@@H](CCCNC(=N)N)C(=O)NCCCCC1CCN(CC(=O)N2c3ccccc3NC(=O)c3ccccc32)CC1 sits?
YES

Hi there! Is Ki for CC(=O)N[C@@H](CCCCN)C(=O)N[C@@H](Cc1ccc(O)cc1)C(=O)NCCCCC1CCN(CC(=O)N2c3ccccc3NC(=O)c3ccccc32)CC1 below 2 nM, do you know?
YES

* * *

# assay_system: Muscarinic acetylcholine receptors; M1 & M2 (Homo sapiens) (UniProt P11229+P08172)
# test_method_notes: Selectivity ratio of Ki for human muscarinic M1 receptor expressed in CHO-K9 cells to Ki for human muscarinic M2 receptor expressed in CHO-K9 cells
# Format: cell-based
metric: Ratio Ki

In one line, give reported Ratio Ki of the entry CC(=O)N[C@@H](Cc1c[nH]c2ccccc12)C(=O)N[C@@H](C)C(=O)N[C@@H](Cc1ccc(O)cc1)C(=O)NCCN1CCN(CCCCC2CCN(CC(=O)N3c4ccccc4NC(=O)c4ccccc43)CC2)CC1 .
27

Return reported Ratio Ki. Input molecule: CC(=O)N[C@@H](CCCNC(=N)N)C(=O)NCCCCC1CCN(CC(=O)N2c3ccccc3NC(=O)c3ccccc32)CC1
8.4

Supply reported Ratio Ki belonging to this molecule: CC(=O)N[C@@H](CCCNC(=N)N)C(=O)N[C@@H](CCCCN)C(=O)NCCCCC1CCN(CC(=O)N2c3ccccc3NC(=O)c3ccccc32)CC1
6.5

* * *

# test_method_notes: Stability of the compound in human plasma:PBS of pH 7.4 (1:2) assessed as intact compound at 100 uM incubated for 1 hr by LC-MS analysis
# Assay type: ADME, cell-free
# test_context: plasma diluted with PBS (1:2), read-out: Stability
Listing of entries alongside the reported remaining at 1 h, 100 µM.

test_smiles	remaining at 1 h, 100 µM
CC(=O)N[C@@H](CCCCN)C(=O)N[C@@H](C)C(=O)N[C@@H](CCCNC(=N)N)C(=O)NCCN1CCN(CCCCC2CCN(CC(=O)N3c4ccccc4NC(=O)c4ccccc43)CC2)CC1	> 99%
CC(=O)N[C@@H](CCCNC(=N)N)C(=O)N[C@@H](CCCCN)C(=O)NCC(=O)NCCCCC1CCN(CC(=O)N2c3ccccc3NC(=O)c3ccccc32)CC1	> 99%

Please turn your attention to the following entry.
Read off the recorded remaining at 1 h, 100 µM for CC(=O)N[C@@H](CCCCN)C(=O)N[C@@H](CCCNC(=N)N)C(=O)NCCCCC1CCN(CC(=O)N2c3ccccc3NC(=O)c3ccccc32)CC1
99%

* * *

Recorded Ratio Ki by entry
# assay_system: Muscarinic acetylcholine receptor M2 and M4 (Homo sapiens) (UniProt P08173+P08172)
# test_method_notes: Selectivity ratio of Ki for human muscarinic M4 receptor expressed in CHO-K9 cells to Ki for human muscarinic M2 receptor expressed in CHO-K9 cells
# Format: cell-based
The response must contain the number and no unit.

test_smiles	metric	endpoint_result
CC(=O)N[C@@H](CCCNC(=N)N)C(=O)N[C@@H](CCCNC(=N)N)C(=O)NCCCCC1CCN(CC(=O)N2c3ccccc3NC(=O)c3ccccc32)CC1	Ratio Ki	19

System Muscarinic acetylcholine receptor M2 and M4 (Homo sapiens) (UniProt P08173+P08172). Read-out Ratio Ki. Item CC(=O)N[C@@H](CCCCN)C(=O)N[C@@H](CCCNC(=N)N)C(=O)NCC(=O)NCCCCC1CCN(CC(=O)N2c3ccccc3NC(=O)c3ccccc32)CC1 . Report value.
6.9

Provide measured Ratio Ki on Muscarinic acetylcholine receptor M2 and M4 (Homo sapiens) (UniProt P08173+P08172) for CC(=O)N[C@@H](Cc1c[nH]c2ccccc12)C(=O)N[C@@H](Cc1ccc(O)cc1)C(=O)NCCCCC1CCN(CC(=O)N2c3ccccc3NC(=O)c3ccccc32)CC1 please.
2.8

Under Muscarinic acetylcholine receptor M2 and M4 (Homo sapiens) (UniProt P08173+P08172): report Ratio Ki of CC(=O)N[C@@H](Cc1ccc(O)cc1)C(=O)N[C@@H](C)C(=O)N[C@@H](CCCCN)C(=O)NCCCCC1CCN(CC(=O)N2c3ccccc3NC(=O)c3ccccc32)CC1 .
5.9

* * *

# test_method_notes: Stability of the compound in human plasma used as 1:2 ratio of plasma to pH 7.4 PBS assessed as intact compound at 100 uM incubated for 48 hr by LC-MS analysis
# Type: ADME, cell-free
# test_context: plasma diluted with PBS (1:2), read-out: Stability
Attribute: remaining at 48 h, 100 µM

Completed entries (count: 2):
test_smiles	remaining at 48 h, 100 µM
CC(=O)N[C@@H](CCCNC(=N)N)C(=O)N[C@@H](CCCCN)C(=O)NCC(=O)NCCCCC1CCN(CC(=O)N2c3ccccc3NC(=O)c3ccccc32)CC1	83%
CC(=O)N[C@@H](CCCCN)C(=O)N[C@@H](CCCNC(=N)N)C(=O)NCCCCC1CCN(CC(=O)N2c3ccccc3NC(=O)c3ccccc32)CC1	> 99%

In the following, a different molecule is considered.
Give recorded remaining at 48 h, 100 µM. CC(=O)N[C@@H](CCCCN)C(=O)N[C@@H](C)C(=O)N[C@@H](CCCNC(=N)N)C(=O)NCCN1CCN(CCCCC2CCN(CC(=O)N3c4ccccc4NC(=O)c4ccccc43)CC2)CC1
> 99%

* * *

Below, each entry is listed alongside its reported pIC50.
# assay_system: Muscarinic acetylcholine receptor M2 (Homo sapiens, UniProt P08172)
# test_method_notes: Antagonist activity at human muscarinic M2 receptor expressed in HEK293 cells co-expressing HA-Galphaq/i5 assessed as inhibition of carbachol-induced IP1 accumulation pre-incubated for 30 mins followed by carbachol addition and measured after 1 hr by HTRF assay
# Type: functional, cell-based
Scale note: pIC50 = -log10(concentration in M).

test_smiles	metric	endpoint_result
CC(=O)N[C@@H](CCCCN)C(=O)N[C@@H](CCCNC(=N)N)C(=O)NCCCCC1CCN(CC(=O)N2c3ccccc3NC(=O)c3ccccc32)CC1	pIC50	7.03

Here is another molecule to look at.
Please give the documented pIC50 of CC(=O)N[C@@H](CCCCN)C(=O)N[C@@H](C)C(=O)N[C@@H](CCCNC(=N)N)C(=O)NCCN1CCN(CCCCC2CCN(CC(=O)N3c4ccccc4NC(=O)c4ccccc43)CC2)CC1
7.98
